Each recorded value in this set is attributed to the supplement of paper PMC9170038.

Tested on: MS2 coat protein
Assay: apparent KD of MS2 coat protein; designed switch direction (-1 OFF switch, 1 ON switch): -1; higher = weaker reporter binding
Details: input ligand: none
observation-type: apparent KD of MS2 coat protein (nM)
Note: unit nM is implicit; provide only the numeric part.

Below, each entry is followed by its recorded apparent KD of MS2 coat protein result.
record-sequence	assayed-system	unit-string	recorded-result
GAUAAUGAAGGAUAUACAGGCGGUCCGUGACUAGUCUUCAUACAUGAGGAUCACCCAUGUAGAAGGUCAAUGUU [Eternabot (L1) Solution 64] (Eterna round: R97, puzzle: Exclusion 2)	MS2 coat protein	nM	14.4
UUAUACAAGCAAAGAUCCCACAUGAGGAUCACCCAUGUGCUCGUCUUAUAAGGAUCUGUGACGAAAGUCACGGAUCC [Mat - Sensor, turn-off var - Eli Mod - D101] (Eterna round: R97, puzzle: Sensor, turn-off variant 1)	MS2 coat protein	nM	35.7

Exercise: For the sequence UAUUAGCAAGCGAGAUCCCACAUGAGGAUCACCCAUGUGCUCGUCUUAUAAAGUACUGUGACGAAAGUCACGGUACG [Mat - Sensor, turn-off var - Eli Mod - D10] (Eterna round: R97, puzzle: Sensor, turn-off variant 1) , report apparent KD of MS2 coat protein.
Solution: 14.6
